# Test system: TAB113
# Protocol description: qHTS profiling for inhibitors of Plasmodium falciparum proliferation (AID 504749); note: nearly all actives have a fitted effect of over 60% in size
# Test context: P. falciparum in erythrocytes, SYBR Green DNA, 72 h; series mostly up to 28.7 µM
Results filed as inconclusive are left out. Activity calls are given as the source filed them. Calls come from the whole dose curve; as a rule, active = well fitted inhibition curve with a large enough effect; inconclusive = small, poorly fitted or top-dose-only effect; inactive = flat fitted curve, though single readings scatter.
Hi! Could you answer with just one of these? Y for active, N for inactive

The examples below pair each entry with its known result.
>  <Compound>
C1COC(NC(C2CC2)C2CC2)=N1

>  <Cat>
N

$$$$
>  <Compound>
O=c1n(CCCN2CCN(c3cccc(Cl)c3)CC2)nc2ccccn12

>  <Cat>
N

$$$$
>  <Compound>
NC(=O)c1cnccn1

>  <Cat>
N

$$$$

Please share the test call associated with "Clc1ccc(Nc2nnc(Cc3ccncc3)c3ccccc23)cc1" . N

Now this one: Oc1ccc(C2CNCCc3c2cc(O)c(O)c3Cl)cc1 (stereo not drawn) N

Now this one: "CC(C)C[C@H](NC(=O)[C@@H](O)[C@H](N)Cc1ccccc1)C(=O)O" Y

Now this one: "N#Cc1ccc(C(c2ccc(C#N)cc2)n2cncn2)cc1" N

Now this one: CC(C)NCC(O)COc1ccc(COCCOC(C)C)cc1 (stereo not drawn) N

Now this one: "N[C@@H]1CONC1=O" N

Reference for the values: PubChem BioAssay (NCATS)
